Values were extracted from patent US6013649A.

Molecular target: hMMP 13 (Homo sapiens, UniProt P45452)
Experiment: In vitro metalloprotease inhibition, fluorogenic peptide substrate (recombinant human MMP-13, APMA activated)
Settings: recombinant human MMP-13, room temperature, pH 7.5, 4 μM substrate
pIC50: −log10 of the molar value.
Value Kind: pIC50

>  <Molecule>
COc1ccc(S(=O)(=O)CCCS)cc1

>  <Value Kind>
pIC50

>  <Experimental Value>
7.15

$$$$
>  <Molecule>
CCCCCCCCCC(CCS)S(=O)(=O)c1ccc(OC)cc1 (centres unmarked)

>  <Value Kind>
pIC50

>  <Experimental Value>
6.68

$$$$
>  <Molecule>
CCCOc1ccc(S(=O)(=O)CCCS)cc1

>  <Value Kind>
pIC50

>  <Experimental Value>
7.26

$$$$
>  <Molecule>
O=C(NCCN1CCOCC1)C(S)CCS(=O)(=O)c1ccc(Oc2ccccc2)cc1 (centres unmarked)

>  <Value Kind>
pIC50

>  <Experimental Value>
9.70

$$$$
>  <Molecule>
COc1ccc(S(=O)(=O)CC(CS)NC(=O)CNC(=O)OCc2ccccc2)cc1 (racemic)

>  <Value Kind>
pIC50

>  <Experimental Value>
7.38

$$$$
>  <Molecule>
O=S(=O)(CCCS)c1ccc(-c2ccccc2)cc1

>  <Value Kind>
pIC50

>  <Experimental Value>
6.77

$$$$
>  <Molecule>
COc1ccc(S(=O)(=O)CCS)cc1

>  <Value Kind>
pIC50

>  <Experimental Value>
6.70

$$$$
>  <Molecule>
COC(=O)C(S)CCS(=O)(=O)c1ccc(OC)cc1 (racemic)

>  <Value Kind>
pIC50

>  <Experimental Value>
7.82

$$$$

1 = COc1ccc(S(=O)(=O)CCC(C)S)cc1 (racemic)
2 = COc1ccc(S(=O)(=O)CC(C)(C)CS)cc1
Which has the higher pIC50, 1 or 2 ? Returns: label corresponding to the selected item. 1
